The entries below are paired with their reported growth inhibition.
# assay-details: NCI Yeast Anticancer Drug Screen. Data for the rad50 strain (AID 155);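 also: 0% = growth of vehicle-only cultures of the same strain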
# stated-conditions: S. cerevisiae rad50 strain growth inhibition; at 50.0 µM (retest, dose inferred, filed as 5.0); hits give high values
This is part of a sample that, as a whole, favours compounds with a hit. Of some 79,000 tested, about 15% had one in any assay.

compound	unit-text	growth inhibition
COc1ccc2c(c1)C(=O)/C(=C/c1ccc([N+](=O)[O-])o1)CO2	%	99
O=C(O)Cc1cccc2cc3c(ccc4ccccc43)cc12	%	34
Cc1ccccc1N=Nc1c(C)nn(C(N)=S)c1-c1ccccc1	%	85
COc1ccc(-c2c(-c3ccccc3)c(C)nc3nc(SC)nc(SC)c23)cc1OC	%	95
CC(/C=C/c1cccs1)=N\NC(=S)NCC(C)C	%	95
Clc1ncccc1-n1cccc1/C=N\N=C/c1cccn1-c1cccnc1Cl	%	98
Cc1c2cnccc2c(C)c2c1c1ccccc1n2Cc1ccccc1	%	98
Oc1cccc2ccncc12	%	9
COc1ccc(C(=O)C2C(=O)C(=O)OC2C2OC(=O)C(=O)C2C(=O)c2ccc(OC)cc2)cc1 (stereo not drawn)	%	2
CC(=NCC(=O)O)c1ccccc1	%	-6
O=C1c2ccc3ccccc3c2CCC1[n+]1ccc2ccccc2c1 (stereo not drawn)	%	57
CCCCOC(=O)C(=O)/C(=C/N1C(=O)/C(=C/C(C)=C/c2ccccc2)SC1=S)C(=O)C=C(C)C	%	8
CCCCCCCN(CCCCCCC)CC(=O)NC(=O)c1ccccc1	%	99
CCN(c1ccc(C=O)cc1)c1ccc([N+](=O)[O-])cc1[N+](=O)[O-]	%	33
COC(=O)c1nnn(-c2ccc(S(N)(=O)=O)cc2)c1C(=O)c1ccc(Cl)c(Cl)c1	%	98
CCCCN(CCCC)c1ccc2c(c1)C(O)c1ccccc1-2 (stereo not drawn)	%	81
CC(=O)N/N=C1/CC[C@@]2(C)C(=CC[C@H]3C4CCC(C(C)CCCC(C)C)[C@@]4(C)CCC32)C1(C)C (stereo partly drawn)	%	79
COc1ccccc1C1c2cc3c(cc2OC(N2CCOCC2)C1C)OCO3 (stereo not drawn)	%	18

----------
# assay-details: NCI Yeast Anticancer Drug Screen. Data for the cln2 rad14 strain (AID 165);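 also: 0% = growth equal to vehicle treated cultures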
# stated-conditions: S. cerevisiae cln2 rad14 strain, at 50.0 µM, hits give high values
# Protocol: Growth inhibition of yeast strains with defined genetic alterations is measured as a screen for potential anti-cancer activity. Selected strains with alterations in DNA damage repair or cell cycle control were exposed to compounds and growth inhibition was measured relative to vehicle treated controls. The strain used in this assay is cln2 rad14
Compounds without any hit were thinned out: in the full panel of roughly 79,000, 15% have a hit. The source made the active and inactive calls. Rule as the data show it: active = growth inhibition above about 70%; inactive = the rest.

compound	growth inhibition
COc1cc(CC#N)c(NC(C)=O)cc1OC	41% (inactive)
O=C(O)Cc1ccc2c(c1O)C(=O)c1ccccc1C2=O	57.5% (inactive)
CCCc1cc(=O)oc2c3c(c4c(c12)OC(C)(C)CC4)O[C@H](C)[C@H](C)C3=O	90.3% (active)
CCOC(=O)c1cc(Cl)nc2ccc(OC)cc12	40.9% (inactive)
C(=N\NC1=NCCN1)/c1ccc(-c2cn3cc(/C=N/NC4=NCCN4)ccc3n2)cc1	98.1% (active)
Cc1cc2nc3c(C)c4ccccc4c(C)n3c2cc1C	83.4% (active)
CCCCCCCCCCCCCCCC(=O)NCC[N+](CC)(CC)Cc1ccc(C[N+](CC)(CC)CCNC(=O)CCCCCCCCCCCCCCC)cc1	99.3% (active)
CC(=O)NCC1OC2COC(c3ccccc3)OC2C(NC(=O)c2ccccc2)C1OC(=O)c1ccccc1 (stereo not given)	6.7% (inactive)
CC(C)=CCc1c(O)cc(O)c2c1OC(c1ccc(O)cc1)C(O)C2=O (stereo not given)	91.5% (active)
O=[N+]([O-])c1ccc(C2=C[P+](c3ccccc3)(c3ccccc3)C=C(c3ccccc3)O2)cc1	86.4% (active)
